procedure.details: In vitro stability in rat plasma
Type: in vitro ADME
Starred links: 1 amine or outer side, 2 acyl side, 3 side chain; linkers in the order of their positions; H or OH if unused. Non-standard residues stand in square brackets, D forms with d. Residues, ends and D or L forms follow the SMILES beside them. *: point of attachment. Phe(4-Cl) = N[C@@H](Cc1ccc(Cl)cc1)C(=O)O; γGlu = O=C(O)[C@H](CCC(=O)[*:2])N[*:1]; NMeR = CN[C@@H](CCCNC(=N)N)C(=O)O; Tridecanoyl = CCCCCCCCCCCCC(=O)*; Nle = CCCC[C@H](N)C(=O)O; AEEA = NCCOCCOCC(=O)O
measured.parameter: remaining at 4 h, 5 μM (%)

CCCCCCCCCCCCC(=O)N[C@@H](CCC(=O)NCCOCCOCC(=O)NCCOCCOCC(=O)N[C@@H](CCC(N)=O)C(=O)N[C@@H](CCCNC(=N)N)C(=O)N1CCC[C@H]1C(=O)N(C)[C@@H](CCCNC(=N)N)C(=O)N[C@@H](CC(C)C)C(=O)N[C@@H](CO)C(=O)N[C@@H](Cc1c[nH]cn1)C(=O)N[C@@H](CCCCN)C(=O)NCC(=O)N1CCC[C@H]1C(=O)N[C@@H](CCCC)C(=O)N[C@@H](Cc1ccc(Cl)cc1)C(=O)O)C(=O)O [compound 402] ({Tridecanoyl-γGlu-AEEA-AEEA}-QRP[NMeR]LSHKGP[Nle][Phe(4-Cl)]-OH) ... 87
CCCC[C@H](NC(=O)[C@@H]1CCCN1C(=O)CNC(=O)[C@H](CCCCN)NC(=O)[C@H](Cc1c[nH]cn1)NC(=O)[C@H](CO)NC(=O)[C@H](CC(C)C)NC(=O)[C@H](CCCNC(=N)N)N(C)C(=O)[C@@H]1CCCN1C(=O)[C@H](CCCNC(=N)N)NC(=O)[C@H](CCC(N)=O)NC(C)=O)C(=O)N1CCC[C@H]1C(=O)N[C@@H](Cc1ccc(Cl)cc1)C(=O)O ... 59.6
CCCCCCCCCCCCC(=O)N[C@@H](CCC(=O)NCCOCCOCC(=O)NCCOCCOCC(=O)N[C@@H](CCC(N)=O)C(=O)N[C@H](CCCNC(=N)N)C(=O)N1CCC[C@H]1C(=O)N(C)[C@@H](CCCCNC(=N)N)C(=O)NC(CC(=O)N[C@@H](CO)C(=O)N[C@@H](Cc1c[nH]cn1)C(=O)N[C@@H](CCCCN)C(=O)NCC(=O)N1CCC[C@H]1C(=O)N[C@@H](CCCC)C(=O)N1CCC[C@H]1C(=O)N[C@@H](Cc1ccc(Cl)cc1)C(=O)O)C(C)C)C(=O)O (some centres unmarked) ... 25
CCCCCCCCCCCCC(=O)N[C@@H](CCC(=O)NCCOCCOCC(=O)NCCOCCOCC(=O)N[C@@H](CCC(N)=O)C(=O)N[C@@H](CCCNC(=N)N)C(=O)N1CCC[C@H]1C(=O)N(C)[C@@H](CCCNC(=N)N)C(=O)N[C@H](CC(=O)N[C@@H](CO)C(=O)N[C@@H](Cc1c[nH]cn1)C(=O)N[C@@H](CCCCN)C(=O)NCC(=O)N1CCC[C@H]1C(=O)N[C@@H](CCCC)C(=O)N1CCC[C@H]1C(=O)N[C@@H](Cc1ccc(Cl)cc1)C(=O)O)CC(C)C)C(=O)O ... 37
